test system: MOLM-13 cells; test: MOLM-13 Cell Proliferation Assay (indicator of DHODH inhibition); format: cell-based; conditions: Homo sapiens, 72 Hours of culture, CellTiter-Glo, no uridine
measured-metric: log10(IC50) (log10 of the value in nM)
Field: value | Transform: log10 | Quantity: IC50 | Unit: nM

These recorded examples may help you get a feel for the data.
CN1CCN(c2ccc(C3c4[nH]c5ccc(-n6nccn6)cc5c4CCN3c3nccc(C(F)(F)F)n3)cn2)CC1 (stereo not shown)
1.05
CC(C)c1ccc(C2c3[nH]c4cc(F)c(Cl)cc4c3CCN2c2nccc(C#N)n2)cc1 (stereo not shown)
1.12
N#Cc1ccc(C2c3[nH]c4ccc(Cl)c(F)c4c3CCN2c2ncc(F)cn2)cc1 (stereo not shown)
1.41
FC(F)(F)c1ccnc(N2CCc3c([nH]c4ccc(Cl)cc34)C2c2ccc(N3CCOCC3)cc2)n1 (stereo not shown)
0.11
Cc1cc(Cl)nc(N2CCc3c([nH]c4cc(F)c(Cl)cc34)C2c2ccc(F)cc2)n1 (stereo not shown)
0.81
Cc1nc(N2CCc3c([nH]c4cc(F)c(Cl)cc34)C2c2ccc(/C=C/CCO)cc2)ncc1F (stereo not shown)
0.40
Cc1ccc(C2c3[nH]c4ccc(Cl)cc4c3CCN2c2nc(C(F)(F)F)cc(C(F)(F)F)n2)c(F)c1F (stereo not shown)
0.00
Fc1cnc(N2CCc3c([nH]c4cc(F)c(Cl)cc34)C2c2ccc(F)c(F)c2)nc1 (stereo not shown)
1.95
N#Cc1ccc(C2c3[nH]c4cc(F)c(Cl)cc4c3CCN2c2nccc(Cl)n2)cc1 (stereo not shown)
1.13
Cc1ccc(C2c3[nH]c4ccc(Cl)cc4c3CCN2c2nccc(Cl)n2)cc1 (stereo not shown)
0.61

Report log10(IC50) for "FC(F)(F)c1cc(C(F)(F)F)nc(N2CCc3c([nH]c4ccc(Br)cc34)[C@@H]2c2ccc(N3CCOCC3)nc2)n1" please. -0.70

Report log10(IC50) for Cc1ccc(C2c3[nH]c4ccc(Cl)c(F)c4c3CCN2c2nc(C)cc(C#N)n2)cc1 (stereo not shown) please. 0.45

Report log10(IC50) for CN1CCN(c2ncc(C3c4[nH]c5ccc(Cl)cc5c4CCN3c3nccc(C(F)(F)F)n3)cn2)CC1 (stereo not shown) please. 0.65

Report log10(IC50) for Cc1cc(C#N)nc(N2CCc3c([nH]c4ccc(Cl)c(F)c34)C2c2ccc(C)c(F)c2F)n1 (stereo not shown) please. -0.30

Report log10(IC50) for FC(F)(F)c1ccnc(N2CCc3c([nH]c4ccc(Cl)cc34)C2c2ccc(-n3cccn3)cc2)n1 (stereo not shown) please. 0.08

Report log10(IC50) for Cc1nc(C)nc(N2CCc3c([nH]c4ccc(Cl)c([N+](=O)[O-])c34)C2c2cnc(N3CCOCC3)nc2)n1 (stereo not shown) please. 2.22

Report log10(IC50) for Fc1ccc(C2c3[nH]c4ccc(F)c(F)c4c3CCN2c2ncc(F)cn2)cc1 (stereo not shown) please. 2.41

Report log10(IC50) for "FC(F)(F)c1nc(N2CCc3c([nH]c4ccc(-n5nccn5)cc34)[C@@H]2c2ccc(N3CCOCC3)nc2)nc(C(F)(F)F)n1" please. -0.40

Report log10(IC50) for Fc1cnc(N2CCc3c([nH]c4cc(F)c(Cl)cc34)C2c2ccc(C3CC3)cc2)nc1 (stereo not shown) please. 1.38

###

// reported pIC50 for each item listed
tested on: MOLM-13 cells; test: MOLM-13 Cell Proliferation Assay (indicator of DHODH inhibition); type: cell-based; conditions: Homo sapiens, 72 Hours of culture, CellTiter-Glo, no uridine
Just the number, please; pIC50 means minus log10 of the concentration in mol/L.

Find the measured pIC50: item Fc1cc2[nH]c3c(c2cc1Cl)CCN(c1ncc(Cl)cn1)C3c1cccc(F)c1F (stereo not drawn) [Compound 131] , target or system MOLM-13 cells. 8.04

Find the measured pIC50: item Fc1cc2[nH]c3c(c2cc1Cl)CCN(c1nccc(Cl)n1)C3c1ccc(Cl)cc1 (stereo not drawn) [Compound 39] , target or system MOLM-13 cells. 7.99

Find the measured pIC50: item Fc1ccc(C2c3[nH]c4cc(F)c(Cl)cc4c3CCN2c2nccc(C(F)(F)F)n2)c(F)n1 (stereo not drawn) [Compound 184] , target or system MOLM-13 cells. 8.10

###

tested on: MOLM-13 cells; assay: MOLM-13 Cell Proliferation Assay (indicator of DHODH inhibition); format: cell-based; conditions: Homo sapiens, 72 Hours of culture, CellTiter-Glo, no uridine
# note: exactly 9 nM is not below, so it is False; use True for IC50 strictly under it

Field: example entries. Status: answers known.
Cc1ccc(C2c3[nH]c4cc(F)c(Cl)cc4c3CCN2c2nccc(C)n2)cc1 (stereo not shown) [Compound 42]
False
OCc1ccc(C2c3[nH]c4cc(F)c(Cl)cc4c3CCN2c2ncc(F)cn2)cc1 (stereo not shown) [Compound 78]
False

Report whether reported IC50 is lower than 9 nM (strictly) for CN(C)c1ccc(C2c3[nH]c4cc(F)c(Cl)cc4c3CCN2c2nccc(C(F)(F)F)n2)c(F)c1F (stereo not shown) [Compound 173] True

Report whether reported IC50 is lower than 9 nM (strictly) for FC(F)(F)c1ccnc(N2CCc3c([nH]c4ccc(Cl)cc34)[C@@H]2c2ccc(N3CCOCC3)nc2)n1 [Compound 473] True

Report whether reported IC50 is lower than 9 nM (strictly) for Cc1ccc([C@H]2c3[nH]c4ccc(Cl)cc4c3CCN2c2nc(N3CCOCC3)nc(C(F)(F)F)n2)c(F)c1F [Compound 436] True

Report whether reported IC50 is lower than 9 nM (strictly) for Cc1ccc(C2c3[nH]c4ccc(Cl)cc4c3CCN2c2nccc(C(F)(F)F)n2)c(F)c1F (stereo not shown) [Compound 128] True

Report whether reported IC50 is lower than 9 nM (strictly) for Cc1ccc(C2c3[nH]c4cc(F)c(Cl)cc4c3CCN2c2ncc(F)c(C)n2)c(F)c1F (stereo not shown) [Compound 125] True

###

test system: MOLM-13 cells; test: MOLM-13 Cell Proliferation Assay (indicator of DHODH inhibition); assay type: cell-based; conditions: Homo sapiens, 72 Hours of culture, CellTiter-Glo, no uridine
// reported IC50 for each item listed
Give the value, in units of nM, as a plain number.

Cc1ccc(C2c3[nH]c4cc(F)c(Cl)cc4c3CCN2c2nc(C(F)(F)F)cc(C(F)(F)F)n2)c(F)c1F (stereo not shown)
0.5
Cc1ccc(C2c3[nH]c4ccc(Cl)c(F)c4c3CCN2c2nccc(Cl)n2)cc1 (stereo not shown)
4.4
Cc1ccnc(N2CCc3c([nH]c4ccc(Cl)c(F)c34)C2c2ccc(/C=C/CCO)cc2)n1 (stereo not shown)
4.7

Continue with the next molecule.
Find the measured IC50: item Fc1ccc(C2c3[nH]c4ccc(Cl)cc4c3CCN2c2nccc(C(F)(F)F)n2)cc1 (stereo not shown) , target or system MOLM-13 cells. 7.1

###

System: MOLM-13 cells
Experiment: MOLM-13 Cell Proliferation Assay (indicator of DHODH inhibition)
Assay type: cell-based
Conditions: Homo sapiens, 72 Hours of culture, CellTiter-Glo, no uridine
Method: The following assay was conducted to measure proliferation of MOLM-13 cells in the presence of each compound studied. […] On day 1, Log-phase growing Molm-13 Cells were counted and diluted to 10^5 cells/mL in RPMI 1640 medium+10% FBS • 3. […] The plates were then read by ViewLux (Speed-fast, Gain-High, Bining-1X, 5 seconds).
# note: exactly 3 nM is not below, so it is false; use true for IC50 strictly under it

Fc1cc2[nH]c3c(c2cc1Cl)CCN(c1nccc(C(F)(F)F)n1)C3c1ccc(C(F)(F)F)cc1 (centres unmarked)
false
Cc1ccc([C@H]2c3[nH]c4ccc(Cl)cc4c3CCN2c2nc(N3CCOCC3)nc(C(F)(F)F)n2)cc1
false
Cc1ccc([C@H]2c3[nH]c4ccc(Cl)cc4c3CCN2c2nc(CO)nc(C(F)(F)F)n2)c(F)c1F
false
Cc1cc(C)nc(N2CCc3c([nH]c4ccc(Cl)cc34)C2c2ccc(C)c(F)c2F)n1 (centres unmarked)
true
Cc1ccc(C2c3[nH]c4c(O)cc(Cl)cc4c3CCN2c2nccc(C(F)(F)F)n2)c(F)c1F (centres unmarked)
true
Oc1cc(C2c3[nH]c4ccc(Cl)cc4c3CCN2c2ncc(F)cn2)ccc1Cl (centres unmarked)
false
CN1CCN(c2ncc([C@H]3c4[nH]c5ccc(Cl)cc5c4CCN3c3nccc(C(F)(F)F)n3)cn2)CC1
true
Cc1ccc([C@H]2c3[nH]c4ccc(Cl)cc4c3CCN2c2nc(C)nc(C#N)n2)cc1
false
Cc1nc(C)nc(N2CCc3c([nH]c4ccc(-n5nccn5)cc34)C2c2cnc(N3CCOCC3)nc2)n1 (centres unmarked)
false
Cc1cc(C#N)nc(N2CCc3c([nH]c4ccc(Cl)c(F)c34)C2c2ccc(F)cc2)n1 (centres unmarked)
false

Report whether reported IC50 is lower than 3 nM (strictly) for "Clc1ccc2[nH]c3c(c2c1)CCN(c1ncc(Br)cn1)[C@H]3c1cnc(N2CCOCC2)nc1" false

Report whether reported IC50 is lower than 3 nM (strictly) for Cc1ccc(C2c3[nH]c4cc(F)c(Cl)cc4c3CCN2c2nccc(C(F)(F)F)n2)c(F)c1F (centres unmarked) true

Report whether reported IC50 is lower than 3 nM (strictly) for Fc1cnc(N2CCc3c([nH]c4ccc(Cl)cc34)C2c2ccc(N3CCOCC3)nc2)nc1 (centres unmarked) false

Report whether reported IC50 is lower than 3 nM (strictly) for Fc1c(Br)ccc(C2c3[nH]c4ccc(Cl)cc4c3CCN2c2nccc(C(F)(F)F)n2)c1F (centres unmarked) true

Report whether reported IC50 is lower than 3 nM (strictly) for Fc1c(Cl)ccc2[nH]c3c(c12)CCN(c1nccc(C(F)(F)F)n1)C3c1cccnc1 (centres unmarked) false

Report whether reported IC50 is lower than 3 nM (strictly) for CN(C)c1ccc(C2c3[nH]c4ccc(Cl)c(F)c4c3CCN2c2ncc(F)cn2)cn1 (centres unmarked) false

Report whether reported IC50 is lower than 3 nM (strictly) for Cc1nc(C)nc(N2CCc3c([nH]c4ccc(Cl)cc34)C2c2ccc(C)c(F)c2F)n1 (centres unmarked) true
